tested on: 556581-035-R-J1-PDC spheroids with HUVEC/MSC, viability; experiment: Anticancer human tumor 556581-035-R-J1-PDC patient-derived ovarian carcinoma cell line growth inhibition [IpAb]; conditions: curve of first compound; second compound 10 µM
measurement.name: IC50

Use these answered entries as a reference point.
[
  {
    "compound": "CC1(C)CCC(CN2CCN(c3ccc(C(=O)NS(=O)(=O)c4ccc(NCC5CCOCC5)c([N+](=O)[O-])c4)c(Oc4cnc5[nH]ccc5c4)c3)CC2)=C(c2ccc(Cl)cc2)C1 + CC(C)NCC(C(=O)N1CCN(c2ncnc3c2C(C)CC3O)CC1)c1ccc(Cl)cc1",
    "IC50": "< 31.6 nM"
  },
  {
    "compound": "C=CC(=O)N1CCN(c2nc(=O)n(-c3c(C)ccnc3C(C)C)c3nc(-c4c(O)cccc4F)c(F)cc23)C(C)C1 (stereo not drawn) + CC(C)NCC(C(=O)N1CCN(c2ncnc3c2C(C)CC3O)CC1)c1ccc(Cl)cc1",
    "IC50": "< 31.6 nM"
  }
]

Data request: Give the reported IC50 for Cn1nccc1Nc1nccc(-c2ccn(C(CO)c3ccc(Cl)c(F)c3)c(=O)c2)n1 (stereo not drawn) + CC(C)NCC(C(=O)N1CCN(c2ncnc3c2C(C)CC3O)CC1)c1ccc(Cl)cc1 (system: 556581-035-R-J1-PDC spheroids with HUVEC/MSC, viability).
Data returned: < 31.6 nM

====

Measured pIC50 accompanies every entry in the list below.
test system: 556581-035-R-J1-PDC spheroids with HUVEC/MSC, viability; experiment: Anticancer human tumor 556581-035-R-J1-PDC cell line growth inhibition [IpAb]; details: curve of first compound; second compound 0.0316 µM;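 note: spheroids exposed to compounds for 7 days before readout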
Value format note: pIC50 is -log10 of concentration (mol/L); just state the number.

[
  {
    "compound": "C=CC(=O)N1CCN(c2nc(=O)n(-c3c(C)ccnc3C(C)C)c3nc(-c4c(O)cccc4F)c(F)cc23)C(C)C1 (stereo not given) + CCN1CCN(Cc2ccc(Nc3ncc(F)c(-c4cc(F)c5nc(C)n(C(C)C)c5c4)n3)nc2)CC1",
    "recorded.measurement": 5.14
  },
  {
    "compound": "Cc1nc(NC(=O)N2CCCC2C(N)=O)sc1-c1ccnc(C(C)(C)C(F)(F)F)c1 (stereo not given) + CCN1CCN(Cc2ccc(Nc3ncc(F)c(-c4cc(F)c5nc(C)n(C(C)C)c5c4)n3)nc2)CC1",
    "recorded.measurement": 6.56
  },
  {
    "compound": "Cn1nccc1Nc1nccc(-c2ccn(C(CO)c3ccc(Cl)c(F)c3)c(=O)c2)n1 (stereo not given) + CCN1CCN(Cc2ccc(Nc3ncc(F)c(-c4cc(F)c5nc(C)n(C(C)C)c5c4)n3)nc2)CC1",
    "recorded.measurement": 5.22
  },
  {
    "compound": "CC(C)n1nc(-c2ccc3oc(N)nc3c2)c2c(N)ncnc21 + CCN1CCN(Cc2ccc(Nc3ncc(F)c(-c4cc(F)c5nc(C)n(C(C)C)c5c4)n3)nc2)CC1",
    "recorded.measurement": 8.15
  },
  {
    "compound": "CC1(C)CCC(CN2CCN(c3ccc(C(=O)NS(=O)(=O)c4ccc(NCC5CCOCC5)c([N+](=O)[O-])c4)c(Oc4cnc5[nH]ccc5c4)c3)CC2)=C(c2ccc(Cl)cc2)C1 + CCN1CCN(Cc2ccc(Nc3ncc(F)c(-c4cc(F)c5nc(C)n(C(C)C)c5c4)n3)nc2)CC1",
    "recorded.measurement": 5.19
  }
]

Data request: Given the entry Cn1cnc2c(F)c(Nc3ccc(Br)cc3Cl)c(C(=O)NOCCO)cc21 + CCN1CCN(Cc2ccc(Nc3ncc(F)c(-c4cc(F)c5nc(C)n(C(C)C)c5c4)n3)nc2)CC1 , report its measured pIC50.
Data returned: 5.95

Data request: Quick one: Cn1ncc(Cl)c1-c1cc(C(=O)NC(CN)Cc2cccc(F)c2)sc1Cl (stereo not given) + CCN1CCN(Cc2ccc(Nc3ncc(F)c(-c4cc(F)c5nc(C)n(C(C)C)c5c4)n3)nc2)CC1
Data returned: 5.74

Data request: Quick one: C=CCn1c(=O)c2cnc(Nc3ccc(N4CCN(C)CC4)cc3)nc2n1-c1cccc(C(C)(C)O)n1 + CCN1CCN(Cc2ccc(Nc3ncc(F)c(-c4cc(F)c5nc(C)n(C(C)C)c5c4)n3)nc2)CC1
Data returned: 6.65

Data request: Quick one: COc1c(OCCCN2CCOCC2)ccc2c3n(c(=NC(=O)c4cnc(N)nc4)nc12)CCN3 + CCN1CCN(Cc2ccc(Nc3ncc(F)c(-c4cc(F)c5nc(C)n(C(C)C)c5c4)n3)nc2)CC1
Data returned: 7.73

====

Measured viability, T/C accompanies every entry in the list below.
tested on: 556581-035-R-J1-PDC spheroids with HUVEC/MSC, viability; assay: Anticancer human tumor 556581-035-R-J1-PDC cell line growth inhibition [IpAb]; conditions: second compound 1 µM; first compound 0.1 µM; stronger effect = lower value;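 note: spheroids exposed to compounds for 7 days before readout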
Kindly answer with a numeric value in %, unit omitted.

[
  {
    "compound": "CC1(C)CCC(CN2CCN(c3ccc(C(=O)NS(=O)(=O)c4ccc(NCC5CCOCC5)c([N+](=O)[O-])c4)c(Oc4cnc5[nH]ccc5c4)c3)CC2)=C(c2ccc(Cl)cc2)C1 + CC(C)NCC(C(=O)N1CCN(c2ncnc3c2C(C)CC3O)CC1)c1ccc(Cl)cc1",
    "measurement.name": "viability, T/C",
    "recorded.measurement": 76
  }
]

Turning now to a further compound:
Data request: Given the entry C=CCn1c(=O)c2cnc(Nc3ccc(N4CCN(C)CC4)cc3)nc2n1-c1cccc(C(C)(C)O)n1 + CCN1CCN(Cc2ccc(Nc3ncc(F)c(-c4cc(F)c5nc(C)n(C(C)C)c5c4)n3)nc2)CC1 , report its measured viability, T/C.
Data returned: 41.1

====

Measured viability, T/C accompanies every entry in the list below.
tested on: 556581-035-R-J1-PDC spheroids with HUVEC/MSC, viability; experiment: Anticancer human tumor 556581-035-R-J1-PDC cell line growth inhibition [IpAb]; settings: second compound 1 µM; first compound 0.0949 µM; stronger effect = lower value;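 note: spheroids exposed to compounds for 7 days before readout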
Kindly answer with a numeric value in %, unit omitted.

Use these answered entries as a reference point.
[
  {
    "compound": "CC(=O)c1c(C)c2cnc(Nc3ccc(N4CCNCC4)cn3)nc2n(C2CCCC2)c1=O + CCN1CCN(Cc2ccc(Nc3ncc(F)c(-c4cc(F)c5nc(C)n(C(C)C)c5c4)n3)nc2)CC1",
    "viability, T/C [%]": 49.8
  },
  {
    "compound": "Cn1cnc2c(F)c(Nc3ccc(Br)cc3Cl)c(C(=O)NOCCO)cc21 + CCN1CCN(Cc2ccc(Nc3ncc(F)c(-c4cc(F)c5nc(C)n(C(C)C)c5c4)n3)nc2)CC1",
    "viability, T/C [%]": 59
  },
  {
    "compound": "CC(=O)c1c(C)c2cnc(Nc3ccc(N4CCNCC4)cn3)nc2n(C2CCCC2)c1=O + CC(C)NCC(C(=O)N1CCN(c2ncnc3c2C(C)CC3O)CC1)c1ccc(Cl)cc1",
    "viability, T/C [%]": 65.3
  },
  {
    "compound": "Cn1cnc2c(F)c(Nc3ccc(Br)cc3Cl)c(C(=O)NOCCO)cc21 + CC(C)NCC(C(=O)N1CCN(c2ncnc3c2C(C)CC3O)CC1)c1ccc(Cl)cc1",
    "viability, T/C [%]": 46.1
  }
]

Data request: Given the entry CC(C)(C)c1cnc(CSc2cnc(NC(=O)C3CCNCC3)s2)o1 + CC(C)NCC(C(=O)N1CCN(c2ncnc3c2C(C)CC3O)CC1)c1ccc(Cl)cc1 , report its measured viability, T/C.
Data returned: 36.7

Data request: Quick one: CC(C)(C)c1cnc(CSc2cnc(NC(=O)C3CCNCC3)s2)o1 + CCN1CCN(Cc2ccc(Nc3ncc(F)c(-c4cc(F)c5nc(C)n(C(C)C)c5c4)n3)nc2)CC1
Data returned: 3.81

====

test system: 556581-035-R-J1-PDC spheroids with HUVEC/MSC, viability; assay: Anticancer human tumor 556581-035-R-J1-PDC cell line growth inhibition [IpAb]; details: second compound 3.16 µM; first compound 0.1 µM; stronger effect = lower value;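 note: spheroids exposed to compounds for 7 days before readout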
measurement.name: viability, T/C (%)
Kindly answer with a numeric value in %, unit omitted.

Use these answered entries as a reference point.
[
  {
    "molecule": "Cn1ncc(Cl)c1-c1cc(C(=O)NC(CN)Cc2cccc(F)c2)sc1Cl (stereo not given) + CC(C)NCC(C(=O)N1CCN(c2ncnc3c2C(C)CC3O)CC1)c1ccc(Cl)cc1",
    "experimental.target": "556581-035-R-J1-PDC spheroids with HUVEC/MSC, viability",
    "reading.unit": "%",
    "viability, T/C": 74.6
  },
  {
    "molecule": "CC1(C)CCC(CN2CCN(c3ccc(C(=O)NS(=O)(=O)c4ccc(NCC5CCOCC5)c([N+](=O)[O-])c4)c(Oc4cnc5[nH]ccc5c4)c3)CC2)=C(c2ccc(Cl)cc2)C1 + CC(C)NCC(C(=O)N1CCN(c2ncnc3c2C(C)CC3O)CC1)c1ccc(Cl)cc1",
    "experimental.target": "556581-035-R-J1-PDC spheroids with HUVEC/MSC, viability",
    "reading.unit": "%",
    "viability, T/C": 62.3
  },
  {
    "molecule": "Cc1nc(NC(=O)N2CCCC2C(N)=O)sc1-c1ccnc(C(C)(C)C(F)(F)F)c1 (stereo not given) + CC(C)NCC(C(=O)N1CCN(c2ncnc3c2C(C)CC3O)CC1)c1ccc(Cl)cc1",
    "experimental.target": "556581-035-R-J1-PDC spheroids with HUVEC/MSC, viability",
    "reading.unit": "%",
    "viability, T/C": 43.2
  },
  {
    "molecule": "C=CC(=O)N1CCN(c2nc(=O)n(-c3c(C)ccnc3C(C)C)c3nc(-c4c(O)cccc4F)c(F)cc23)C(C)C1 (stereo not given) + CC(C)NCC(C(=O)N1CCN(c2ncnc3c2C(C)CC3O)CC1)c1ccc(Cl)cc1",
    "experimental.target": "556581-035-R-J1-PDC spheroids with HUVEC/MSC, viability",
    "reading.unit": "%",
    "viability, T/C": 54.5
  }
]

Turning now to a further molecule:
Data request: Given the entry Cn1nccc1Nc1nccc(-c2ccn(C(CO)c3ccc(Cl)c(F)c3)c(=O)c2)n1 (stereo not given) + CC(C)NCC(C(=O)N1CCN(c2ncnc3c2C(C)CC3O)CC1)c1ccc(Cl)cc1 , report its measured viability, T/C.
Data returned: 36.4

Cited source for all entries: PubChem BioAssay AID2060338
